Every entry's value here was drawn from PubChem BioAssay (NCI).

system: CAKI-1 renal; test: NCI tumour cell line growth inhibition, 48 h
property: TGI

What TGI value was documented for this molecule, O=C(NCCCCCCNCc1cccc2ccccc12)Nc1cccc2ccccc12 ?
> 100 µM

What TGI value was documented for this molecule, COC(=O)/C(C=O)=C/Sc1ccccc1 ?
62 µM

What TGI value was documented for this molecule, CC1(C)O/C(=C\c2ccccc2)C(=O)/C(=C/c2ccccc2)O1 ?
> 100 µM

What TGI value was documented for this molecule, CCOC(=O)c1ccc(N2C(=S)N(C(=O)c3ccccc3)C(=Nc3ccccc3)C2=Nc2ccccc2)cc1 ?
> 100 µM

What TGI value was documented for this molecule, COC(=O)/C(C)=C/[N+](=O)[O-] ?
8.14 µM

We now examine a further molecule.
What TGI value was documented for this molecule, CC1(CF)SCc2nc3ccccc3n21 (stereo unspecified) ?
> 100 µM
